Tested on: human APOE RNA
Assay: Activity in APOE C57BL/6NTac-Apoeem7250 knock-in mice, single ICV bolus, 16 weeks (Example 12)
Type: in vivo
Details: cortex; single ICV bolus 300 μg; 16 weeks post treatment; normalized to mouse Ppia
Strand notation (5' to 3'): a small letter for the sugar, then the base; units joined by * are phosphorothioate-linked, units joined directly phosphodiester-linked; [ ] holds rarer units or linkages, { } end groups; capitals alone tell only the bases. [ms] = mesyl phosphoramidate linkage; e = 2'-O-(2-methoxyethyl) (MOE); [5mC] = 5-methylcytosine; d = 2'-deoxy (DNA)
MEASURED_METRIC: APOE RNA (% control) Cortex
Respond numerically; units are % control and should not be typed.

SUBSTANCE	APOE RNA (% control) Cortex
1693141: 6-10-4 MOE gapmer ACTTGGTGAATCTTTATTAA, linkages ssssooszzzssssszsss (eA*e[5mC]*eT*eT*eGeGdT*dG[ms]dA[ms]dA[ms]dT*d[5mC]*dT*dT*dT*dA[ms]eT*eT*eA*eA) [compound 1693141]	82

Now look at this one.
Request: Using the record for 1693056: 5-10-5 MOE gapmer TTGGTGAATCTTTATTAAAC, linkages ssosszzzssssszsosss (antisense eT*eT*eGeG*eT*dG[ms]dA[ms]dA[ms]dT*d[5mC]*dT*dT*dT*dA[ms]dT*eTeA*eA*eA*e[5mC]) [compound 1693056] , report its APOE RNA (% control) Cortex.
Result: 105

* * *

Test system: human APOE RNA
Assay: Duration of action study in APOE C57BL/6NTac-Apoeem7250 knock-in mice (Example 16)
Assay type: in vivo
Conditions: spinal cord; 300 μg ICV; 7 days post-dose
Strand notation (5' to 3'): a small letter for the sugar, then the base; units joined by * are phosphorothioate-linked, units joined directly phosphodiester-linked; [ ] holds rarer units or linkages, { } end groups; capitals alone tell only the bases. [ms] = mesyl phosphoramidate linkage; e = 2'-O-(2-methoxyethyl) (MOE); k = constrained ethyl (cEt); [5mC] = 5-methylcytosine; d = 2'-deoxy (DNA)
Collected APOE RNA (% control) Spinal Cord values appear next to each entry.
Return type: number; implicit unit % control.

// solved cases for APOE RNA (% control) Spinal Cord follow
SUBSTANCE	UNIT_STRING	APOE RNA (% control) Spinal Cord
^mCksTksTksGdzGdzTdzGdzAdzAdzTds^mCdsTdsTdsTdsAdsTdsTksAksAdzAk (antisense k[5mC]*kT*kT*dG[ms]dG[ms]dT[ms]dG[ms]dA[ms]dA[ms]dT*d[5mC]*dT*dT*dT*dA*dT*kT*kA*dA[ms]kA) [Compound No. 1785602]	% control	56
TezTeoGeoGksTdsGdzAdzAdzTds^mCdsTdsTdsTdsAdzTksTksAesAesAes^mCe (antisense eT[ms]eTeGkG*dT*dG[ms]dA[ms]dA[ms]dT*d[5mC]*dT*dT*dT*dA[ms]kT*kT*eA*eA*eA*e[5mC]) [Compound No. 1809814]	% control	84
Aks^mCeoTeoTesGesGksTdsGdzAdzAdzTds^mCdsTdsTdsTdsAdzTksTksAesAe (kA*e[5mC]eTeT*eG*kG*dT*dG[ms]dA[ms]dA[ms]dT*d[5mC]*dT*dT*dT*dA[ms]kT*kT*eA*eA) [Compound No. 1809635]	% control	44

Now let's try a different one.
Request: // APOE RNA (% control) Spinal Cord lookup, key: Aes^mCeoTeoTesGesGksTdsGdzAdzAdzTds^mCdsTdsTdsTdsAdzTksTksAesAe (eA*e[5mC]eTeT*eG*kG*dT*dG[ms]dA[ms]dA[ms]dT*d[5mC]*dT*dT*dT*dA[ms]kT*kT*eA*eA) [Compound No. 1757576]
Result: 42
